molecular target: partially purified bovine lens aldose reductase (Bos taurus, UniProt P16116); construct: partially purified bovine lens aldose reductase; from tissue; host or cells: bovine lens; assay: Inhibitory activity on aldose reductase enzyme reaction; type: biochemical; conditions: concentration 0.02 μg/ml
recorded-metric: inhibition at 0.02 µg/mL (%)

Observe how each entry below is paired with its result.
compound: CCCOc1ccc(CCCC(=O)O)cc1-c1cc(CCCC(=O)O)ccc1O [Example 23]
assay-target: partially purified bovine lens aldose reductase (Bos taurus, UniProt P16116)
recorded-metric: inhibition at 0.02 µg/mL
measured-value: 33.6
--
compound: CC(C)CCOc1ccc(CCCC(=O)O)cc1-c1cc(CCCC(=O)O)ccc1O [Example 27]
assay-target: partially purified bovine lens aldose reductase (Bos taurus, UniProt P16116)
recorded-metric: inhibition at 0.02 µg/mL
measured-value: 23.8
--
compound: CCCCOc1ccc(CCCC(=O)O)cc1-c1cc(CCCC(=O)O)ccc1O [Example 24]
assay-target: partially purified bovine lens aldose reductase (Bos taurus, UniProt P16116)
recorded-metric: inhibition at 0.02 µg/mL
measured-value: 25.6
--
compound: O=C(O)CCCc1ccc(O)c(-c2cc(CCCC(=O)O)ccc2OCc2ccc(Br)cc2F)c1 [Example 19]
assay-target: partially purified bovine lens aldose reductase (Bos taurus, UniProt P16116)
recorded-metric: inhibition at 0.02 µg/mL
measured-value: 23.8
--
compound: O=C(O)CCCc1ccc(O)c(-c2cc(CCCC(=O)O)ccc2OCC2CCCCC2)c1 [Example 20]
assay-target: partially purified bovine lens aldose reductase (Bos taurus, UniProt P16116)
recorded-metric: inhibition at 0.02 µg/mL
measured-value: 18.7
--
compound: CCCCCCCOc1ccc(CCCC(=O)O)cc1-c1cc(CCCC(=O)O)ccc1O [Example 25]
assay-target: partially purified bovine lens aldose reductase (Bos taurus, UniProt P16116)
recorded-metric: inhibition at 0.02 µg/mL
measured-value: 20.5
--
compound: CCOc1ccc(CCC(=O)O)cc1-c1cc(CCC(=O)O)ccc1O [Example 17]
assay-target: partially purified bovine lens aldose reductase (Bos taurus, UniProt P16116)
recorded-metric: inhibition at 0.02 µg/mL
measured-value: 19.5
--
compound: CCCCCCCCOc1ccc(CCCC(=O)O)cc1-c1cc(CCCC(=O)O)ccc1O [Example 26]
assay-target: partially purified bovine lens aldose reductase (Bos taurus, UniProt P16116)
recorded-metric: inhibition at 0.02 µg/mL
measured-value: 35.3

A. COc1ccc(CCCC(=O)O)cc1-c1cc(CCCC(=O)O)ccc1O [Example 21]
B. O=C(O)CCCc1ccc(O)c(-c2cc(CCCC(=O)O)ccc2OCc2ccccc2)c1 [Example 18]
Hi! Which is lower in terms of inhibition at 0.02 µg/mL, the first one A or the second one B ? Choose, then provide that item's label.
A
